Give measured Binding affinity (RU) for each item. Keep answers brief.
- target_desc: acetylcholine receptor
- assay_explanation: SPR, AchR immobilized on CM5 chip, peptide at 10 µM
Reply numerically in RU, unit not repeated.

For the binder KQIRK [5mer-119] , what Binding affinity (RU) is on record?
60

For the binder KLLQR [5mer-106] , what Binding affinity (RU) is on record?
78

For the binder KLIRK [5mer-441] , what Binding affinity (RU) is on record?
53

For the binder RRFRK [5mer-130] , what Binding affinity (RU) is on record?
80

For the binder KLFCR [5mer-420] , what Binding affinity (RU) is on record?
84

For the binder RWICK [5mer-99] , what Binding affinity (RU) is on record?
58

For the binder RQVRR [5mer-432] , what Binding affinity (RU) is on record?
52

For the binder KRYYR [5mer-112] , what Binding affinity (RU) is on record?
58

Cited source for all entries: patent US20250011363A1
